# procedureSummary: in vitro
# conditionContext: dog, liver s9
valueType: half-life (min)
Kindly answer with a numeric value in min, unit omitted.

In: Give half-life for the following compound: COc1nc(N)nc2c1ncn2[C@@H]1O[C@H](COP(=O)(N[C@@H](C)C(=O)OC(C)C)Oc2ccccc2)[C@@H](O)[C@@]1(C)F (stereo partly shown)
Out: 51

---

# procedureSummary: in vitro
# conditionContext: human, intestinal s9
valueType: half-life

In: Find the measured half-life of COc1nc(N)nc2c1ncn2[C@@H]1O[C@H](COP(=O)(N[C@@H](C)C(=O)OC(C)C)Oc2ccccc2)[C@@H](O)[C@@]1(C)F (stereo partly shown) and report it.
Out: > 2 h

---

# procedureSummary: in vitro
# conditionContext: human, plasma
valueType: half-life (h)
Expressed in h, but write only the number.

In: Annotate the molecule COC(=O)C(C)NP1(=O)OCC2OC(n3cnc4c(OC(C)C)nc(N)nc43)C(C)(F)C2O1 (stereo not shown) with its measured half-life.
Out: 1.88

---

# procedureSummary: in vitro
# conditionContext: human, liver s9
valueType: half-life (min)
# number only, unit min dropped from output

In: Return reported half-life. Input compound: COc1nc(N)nc2c1ncn2[C@@H]1O[C@H](COP(=O)(N[C@@H](C)C(=O)OC(C)C)Oc2ccccc2)[C@@H](O)[C@@]1(C)F (stereo partly shown) [compound 5, PSI-353661]
Out: 18

---

# procedureSummary: in vitro
# conditionContext: dog, plasma
valueType: half-life

In: # return recorded half-life for entry COC(=O)C(C)NP1(=O)OCC2OC(n3cnc4c(OC(C)C)nc(N)nc43)C(C)(F)C2O1 (stereo not shown) [compound 19, 19]
Out: > 2 h

---

# procedureSummary: in vitro
# conditionContext: dog, intestinal s9
valueType: half-life (h)
Number in h, nothing else.

In: Item COc1nc(N)nc2c1ncn2[C@@H]1O[C@H](COP(=O)(N[C@@H](C)C(=O)OC(C)C)Oc2ccccc2)[C@@H](O)[C@@]1(C)F (stereo partly shown) [compound 5, PSI-353661] : provide half-life
Out: 1.2

---

Below, each entry is listed with its recorded half-life.
# procedureSummary: in vitro
# conditionContext: rat, plasma, Plasma T1/2 (min) rat

compound	half-life
CCOc1nc(N)nc2c1ncn2C1OC2COP(=O)(NCC(=O)OC(C)C)OC2C1(C)F (stereo not shown)	< 5 min

In: Please report the measured half-life for COC(=O)C(C)NP1(=O)OCC2OC(n3cnc4c(OC(C)C)nc(N)nc43)C(C)(F)C2O1 (stereo not shown)
Out: < 5 min

In: Let me know recorded half-life for CCOC(=O)C(NP1(=O)OCC2OC(n3cnc4c(OCC)nc(N)nc43)C(C)(F)C2O1)C(C)C (stereo not shown) , thanks.
Out: 66 min

In: // fetch half-life given entry CCOc1nc(N)nc2c1ncn2C1OC2COP(=O)(NC(C)C(=O)OC(C)C)OC2C1(C)F (stereo not shown)
Out: < 5 min

Values were extracted from paper doi:10.1101/2020.04.13.040287v1.
